Reported normalized growth is given for each of the following molecules.
measurement_description: chemical genetic growth profiling, strain panel (AID 1159580);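 note: tested at 20 µM; growth read once vehicle control cultures reached saturation at 30 °C; 1 = growth at the plate median or of vehicle wells; lower values mean less growth of the strain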
protocol_conditions: S. cerevisiae deletion strains, growth OD, locus YFR028C, strain CDC14, stronger effect = lower value
About 2,000 (36%) of roughly 5,500 compounds were called active. Another 18% or so got no clear call; they are omitted. This is one part of the list.
Number only, no unit.

Record excerpt, results attached:
[Q] Report normalized growth for Cc1nc(-c2ccccn2)nc(N(C)Cc2ccccc2)c1Cl please.
[A] 0.976

[Q] Look up normalized growth: CCCc1nc(-c2ccccn2)[nH]c(=O)c1CC1CC1
[A] 0.96

Others:
[Q] // returns reported normalized growth for input Clc1cc(Cl)cc(-c2nc(SCc3ccc(Cl)cc3Cl)n[nH]2)c1
[A] 1

[Q] Would you kindly share the measured normalized growth for O=C(Nc1ccc(Cl)cc1)SCc1c(Cl)cccc1Cl ?
[A] 0.988

[Q] Would you mind telling me what normalized growth value was observed for Fc1cccc(Cl)c1CSc1n[nH]c(-c2cc(C(F)(F)F)cc(C(F)(F)F)c2)n1 ?
[A] 0.973

[Q] Which normalized growth is reported for this molecule? CC(C)Cc1ccc(C(C)C(=O)Nc2nn(C)c3ccccc23)cc1 (stereo unspecified)
[A] 0.988

[Q] Reported normalized growth for O=C(NCC(c1ccccc1)c1c[nH]c2ccccc12)c1ccc(C(F)(F)F)cc1 (stereo unspecified) : what is it?
[A] 0.979

[Q] Quick check: normalized growth of S=C(Nc1ccc(Cl)cc1)SCc1c(Cl)cccc1Cl ?
[A] 0.971

[Q] Look up normalized growth: Cc1nc(-c2ccccn2)nc(SCc2ccccc2)c1Cl
[A] 0.94

[Q] Query (molecule): Cc1ccc(S(=O)(=O)n2c(Sc3ccc([N+](=O)[O-])cc3[N+](=O)[O-])nc3cc(C)ccc32)cc1 ; field requested: normalized growth
[A] 0.99

[Q] Can you look up the measured normalized growth of S=C(NNC(=S)NC1CC2C=CC1C2)Nc1ccc(Br)c(Cl)c1 (stereo unspecified) for me?
[A] 0.986

Sourced from PubChem BioAssay AID1159580
